Target: recombinant alpha-glucosidase II (murine full-length glucosidase II, alpha and beta subunits, Glu 2) (Mus musculus)
Construct: made in house; host or cells: HEK-293T cells transduced with BacMam viruses (75% alpha, 25% beta); protein harvested from culture supernatant
Sequence (O08795 15-521): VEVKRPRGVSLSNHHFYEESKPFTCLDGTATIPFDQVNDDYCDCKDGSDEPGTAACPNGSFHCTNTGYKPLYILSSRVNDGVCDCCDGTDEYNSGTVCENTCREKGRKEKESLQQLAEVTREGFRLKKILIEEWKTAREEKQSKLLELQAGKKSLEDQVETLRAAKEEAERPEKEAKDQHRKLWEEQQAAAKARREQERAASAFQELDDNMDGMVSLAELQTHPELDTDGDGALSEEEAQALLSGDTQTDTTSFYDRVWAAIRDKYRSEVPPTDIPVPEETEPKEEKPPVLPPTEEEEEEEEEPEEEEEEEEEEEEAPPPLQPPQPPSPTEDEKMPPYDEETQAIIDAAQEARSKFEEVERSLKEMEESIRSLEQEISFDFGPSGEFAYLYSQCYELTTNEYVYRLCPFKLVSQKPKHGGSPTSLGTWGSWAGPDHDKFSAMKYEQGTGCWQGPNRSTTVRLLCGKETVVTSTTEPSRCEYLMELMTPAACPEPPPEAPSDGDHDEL
Sequence (Q8BHN3 33-944): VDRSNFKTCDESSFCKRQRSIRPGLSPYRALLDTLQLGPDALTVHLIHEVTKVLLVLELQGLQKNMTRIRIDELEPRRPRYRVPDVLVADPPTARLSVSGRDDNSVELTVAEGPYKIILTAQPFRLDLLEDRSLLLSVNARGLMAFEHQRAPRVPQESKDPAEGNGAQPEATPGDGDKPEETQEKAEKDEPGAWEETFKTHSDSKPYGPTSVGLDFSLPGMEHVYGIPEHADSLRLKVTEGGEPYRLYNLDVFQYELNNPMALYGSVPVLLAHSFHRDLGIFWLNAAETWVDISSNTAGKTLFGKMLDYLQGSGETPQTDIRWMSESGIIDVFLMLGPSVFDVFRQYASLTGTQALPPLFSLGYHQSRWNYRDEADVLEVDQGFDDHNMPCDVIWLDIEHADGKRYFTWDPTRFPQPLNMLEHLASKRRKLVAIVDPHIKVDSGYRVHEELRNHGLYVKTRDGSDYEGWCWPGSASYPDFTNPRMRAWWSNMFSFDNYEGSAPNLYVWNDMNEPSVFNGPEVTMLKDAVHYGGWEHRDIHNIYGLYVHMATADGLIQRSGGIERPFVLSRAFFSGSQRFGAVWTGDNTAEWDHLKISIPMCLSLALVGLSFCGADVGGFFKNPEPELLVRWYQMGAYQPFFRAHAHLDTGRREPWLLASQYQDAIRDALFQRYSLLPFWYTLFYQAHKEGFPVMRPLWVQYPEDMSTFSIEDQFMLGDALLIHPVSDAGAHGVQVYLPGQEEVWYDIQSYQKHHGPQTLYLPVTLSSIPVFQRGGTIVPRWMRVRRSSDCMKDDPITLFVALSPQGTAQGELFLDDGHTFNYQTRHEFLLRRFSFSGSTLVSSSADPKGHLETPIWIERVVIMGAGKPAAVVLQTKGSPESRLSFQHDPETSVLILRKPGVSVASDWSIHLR
Assay: Alpha-glucosidase II assay (4-methylumbelliferyl-alpha-D-pyranoside substrate, fluorescence)
Format: biochemical
Conditions: Glucosidase 2; read-out: Glu2 IC50
Please go through the items and note down their IC50.

Use the examples below as a reference point.
molecule smiles | IC50
N#Cc1cc(NCc2ccc(CN3C[C@H](O)[C@@H](O)[C@H](O)[C@H]3CO)cc2)cc(C2=COCCO2)c1 | < 1 nM
[N-]=[N+]=Nc1ccc(NCc2ccc(CN3C[C@H](O)[C@@H](O)[C@H](O)[C@H]3CO)cc2)c([N+](=O)[O-])c1 | < 1 nM
Cc1cc(NCc2cccc(CN3C[C@H](O)[C@@H](O)[C@H](O)[C@H]3CO)c2)cc(-c2ccc[nH]2)c1 | > 100000 nM
CC(C)(C)c1cc(NCCCCCCN2C[C@H](O)[C@@H](O)[C@H](O)[C@H]2CO)cc(-c2ncccn2)c1 | < 1 nM
COc1cc(NCCCCCCN2C[C@H](O)[C@@H](O)[C@H](O)[C@H]2CO)cc(-c2ccccc2)c1 | < 1 nM

Here is the next item to consider.
Noted for OC[C@@H]1[C@@H](O)[C@H](O)[C@@H](O)CN1CCc1ccc(CCNc2cc(Cl)cc(-c3ncccn3)c2)cc1 : its IC50 reads < 1 nM

Hello, the source for this data is patent US20250197372A1, in case you need it.
